# System: UACC-257 melanoma
# test.name: NCI-60 one-dose screen, 48 h (100 = growth as untreated, 0 = no growth, -100 = all killed)
# assay.conditions: 10 µM unless noted
This is part of a sample that, as a whole, favours compounds with a hit. Of some 83,000 tested, about 20% had one in any assay.
Entries and their measured growth follow.

compound	result.units	growth
CNC(=O)NCC1OC(n2cnc3c(NC(=O)Nc4ccccc4)ncnc32)C2OC(=O)CC12 (centres undefined)	%	125
Cc1nc2sc(C(=O)Nc3cccc(Cl)c3C)c(N)c2cc1C(=O)/C=C/c1ccccc1	%	64.2
COc1cc(C=Nc2oc(-c3ccccc3)c(-c3ccccc3)c2C#N)cc(CN2CCCC2)c1O	%	107
COc1ccc2c(c1)CC[C@@H]1[C@@H]2CC[C@]2(C)c3c(cc(C#N)c4c3sc3ccccc34)C[C@@H]12	%	99.9
C=C1C(=O)O[C@H]2[C@H]1CC/C(COC(=O)/C=C\C(=O)NCc1ccc(Cn3c(=O)sn(CCCCl)c3=O)cc1)=C\CC[C@@]1(C)O[C@@H]21	%	68.9
CC1=C(Cl)C(=O)c2cc(C)ccc2C1=O	%	106
O=c1c2ccccc2n(C[C@H]2CO2)c2ccccc12	%	-10.1
Cc1ccc(Cc2cnc(NC(=O)/C=C/c3ccc(C)o3)s2)cc1	%	62.5
O=C1/C(=C/c2ccccn2)SC(=S)N1N1CCOCC1	%	91.8

----------
# System: HOP-62 NSCLC
# test.name: NCI-60 one-dose screen, 48 h
# assay.conditions: 10 µM unless noted
Compounds without any hit were thinned out: in the full panel of roughly 83,000, 20% have a hit. Activity calls are given as the source filed them. Rule for the calls: active = growth percent below 10; inactive = the rest.
Classes used: active, inactive

molecule	class.name
O=c1oc2c(cc1-c1ccccc1)c(=O)[nH]c1ccccc12	inactive
O=C(N/N=C/c1ccc(Cl)cc1)c1ccc(NC(=O)c2ccccn2)cc1	inactive
CNC(=O)c1cc(Oc2ccc3c(c2)sc2nc(-c4cc(C(F)(F)F)cc(C(F)(F)F)c4)cn23)ccn1	inactive
CSc1ccc2c3c(n(C[C@H](O)CO)c(=O)c2c1)-c1ccccc1C3=O	inactive
CS(=O)(=O)Nc1cc(-c2ccc3ncnc(Nc4ccc5c(cnn5Cc5ccccc5F)c4)c3c2)cnc1Cl	inactive
Oc1ccc(-c2nc3ccc4[nH]ncc4c3c3c2CCCC3)c(F)c1	inactive
COc1ccc(/C=C(\C(=O)NCc2cccnc2)S(=O)(=O)c2ccccc2)cc1OC	inactive
Cc1ccc2c(/C=C/C(=O)c3cc(CN4CCOCC4)c(O)c4nc(C)ccc34)cc(CN3CCOCC3)c(O)c2n1	active
COc1ccc(NC(=O)c2ccc(Nc3ncnc4c3cnn4-c3cccc(F)c3)cc2)cc1	inactive
Cc1ccc(C(=O)c2ccc(CC(=O)N/N=C/c3cccc(O)c3O)n2C)cc1	inactive

----------
# System: T-47D breast
# test.name: NCI-60 one-dose screen, 48 h
# assay.conditions: 10 µM unless noted
Compounds without any hit were thinned out: in the full panel of roughly 83,000, 20% have a hit. Activity calls are given as the source filed them. How the source made its calls: active means growth percent below 10; inactive means the rest.
Classes used: true (1) for active, false (0) for inactive

compound	class.name
COc1c2c(cc3c1C(=O)N[C@@H]1[C@@H](O)[C@@H](O)[C@H](O)C[C@@H]31)OCCO2	false (0)
OC1CSSC1Cn1cnc2c(Nc3ccc(OCc4cccc(F)c4)c(Cl)c3)ncnc21 (stereo not given)	false (0)
COc1ccc(-c2cc(-c3cc(OC)ccc3OC)nc(SCC(C)=O)c2C#N)cc1	false (0)
C[C@@H]1NC(=O)[C@H](Cc2ccccc2)N(Cc2cccnc2)C1=O	false (0)
Cc1cc2oc(/C=C/c3ccccc3)cc(=O)c2c(C)c1Cl	false (0)
CCCCn1c(NC(C)=O)c(S(=O)(=O)c2ccccc2)c2nc3ccccc3nc21	false (0)
COc1cc(OC)c2c(=O)c3c(CC=C(C)C)cc(OC)c(O)c3oc2c1	false (0)
CN(C)/C(N)=N/N=C(\c1ccccc1)c1ccccn1	false (0)
NCCCNc1nc2ccccc2c2c(=O)c3cc(Cl)ccc3sc12	true (1)
Nc1nc(N(Cc2ccccc2)c2ccccc2)c2cn[nH]c2n1	false (0)
COc1ccc(Nc2ncc(C#N)c(NCCCNC(=O)C3CCC3)n2)cc1	false (0)
N#Cc1nn(-c2cc(=O)[nH]c3ccc(Br)cc23)c(N)c1C#N	false (0)
CC(C)n1c2ccc(Br)cc2c2c3c(c4c5ccccc5ccc4c21)C(=O)NC3=O	false (0)
C/C(=N\Nc1ccccc1)c1ccc(NC2=CC(=O)c3ccccc3C2=O)cc1	false (0)
Cc1nc2sc(C(=O)Nc3cccc(Cl)c3C)c(N)c2cc1C(=O)/C=C/c1ccccc1	false (0)
COc1ccc(N/N=C/c2cn(-c3ccc(C(=O)O)cc3)nc2-c2cc3ccccc3oc2=O)cc1	false (0)
C/C(=C(\c1ccc(OCCN2CCCCCC2)cc1)c1ccc(OC(=O)c2ccccc2)cc1)c1ccc(Cl)cc1	false (0)
C=C[C@@]1(C)CC(=O)[C@@H](C(C)(C)c2cn(C)c3ccc(Br)cc23)C[C@@H]1O[Si](C)(C)C(C)(C)C	false (0)
N#Cc1c(-c2ccccc2)nc2c(c(-c3ccccc3)nn2-c2ccccc2)c1-c1ccc(N2CCCCC2)cc1	false (0)
CC12OC(CC(O)C1O)n1c3ccccc3c3c4c(c5c6ccccc6n2c5c31)C(=O)N(CCN1CCCC1)C4=O (stereo not given)	false (0)

----------
# Tested on: NCI-H522 lung
# test.name: NCI-60 one-dose screen, 48 h (100 = growth as untreated, 0 = no growth, -100 = all killed)
# assay.conditions: 10 µM unless noted
The panel holds about 83,000 compounds, 20% with a hit somewhere; the sample as a whole holds those more often.
Entries and their measured growth follow.

molecule	growth / %
N#Cc1c(-c2ccc(Cl)cc2)nc(NN=Cc2ccc[nH]2)nc1N1CCOCC1	8.32
C=C[C@@]1(C)CC(=O)[C@@H](C(C)(C)c2cn(C)c3ccc(Br)cc23)C[C@@H]1O[Si](C)(C)C(C)(C)C	94.4
CC1=C(Cl)C(=O)c2cc(C)ccc2C1=O	93
CC(C)CCC[C@@H](C)[C@H]1CC[C@H]2[C@@H]3CC=C4c5sc(Nc6cc(C(F)(F)F)cc(C(F)(F)F)c6)nc5CC[C@]4(C)[C@H]3CC[C@]12C	101

----------
# Test system: PC-3 prostate
# test.name: NCI-60 one-dose screen, 48 h (100 = growth as untreated, 0 = no growth, -100 = all killed)
# assay.conditions: 10 µM unless noted
# Protocol: Growth inhibition of the PC-3 human tumor cell line is measured as a screen for anti-cancer activity. Cells are grown in 96 well plates and exposed to the test compound for 48 hours. Compounds are tested at a single concentration, which is 10^-5 M for most compounds. The reported endpoint is percent growth (GI% or GIPRCNT), where numbers from 0 - 100% represent growth inhibition, and numbers from -100% - 0 represent cell death. For example, a value of 40 represents 60% growth inhibition. […]
About 83,000 compounds went through this panel and 20% of them were active in at least one assay; those are over-represented in the sample as a whole.
# if value of growth reaches 60%, tag satisfied; if it stays below, tag not satisfied

compound	class.name
COc1ccc(C/C(C)=C(\c2ccc(O)cc2)c2ccc(OCCN3CCCCC3)cc2)cc1	satisfied
Cc1ccc(NC(=O)c2cc3ccccc3cc2O)c(C)c1	not satisfied
CC[C@@H](C(=O)[C@@H](C)[C@@H](O)[C@H](C)[C@@H]1O[C@@H]([C@@H](CC)C(=O)ONC(=O)c2ccccc2O)CC[C@@H]1C)C1O[C@]2(C=CC(=O)[C@]3(CC[C@@](C)([C@H]4CC[C@](O)(CC)[C@H](C)O4)O3)O2)[C@H](C)C[C@@H]1C (stereo partly specified)	not satisfied
Cc1nc([P+](c2ccccc2)(c2ccccc2)c2ccccc2)c(N2CCCCC2)o1	not satisfied
CCN(CC)CCN1C(=O)c2c(c3c4ccccc4[nH]c3c3ccc4ccccc4c23)C1=O	not satisfied
CCOC(=O)C/C(=N\Nc1cc(=O)[nH]c2ccc(OC)cc12)C(=O)OCC	satisfied
CCOC(=O)C/C(=N\Nc1cc(=O)[nH]c2ccc(C)cc12)C(=O)OCC	satisfied
N#Cc1c(-c2cccc(Cl)c2)cc(-c2cccnc2)[nH]c1=O	satisfied
CCSc1ccnc(N)n1	satisfied
COc1cc(C[C@H]2COc3cc(O)cc(O)c3C2=O)ccc1O	not satisfied
C=C(C)[C@@H]1CC[C@]2(C)[C@H](C=CC3=C4C[C@@](C)(CO)CC[C@]4(C)CC[C@]32C)[C@@]1(C)CCCN	not satisfied
CC(C)CCC[C@@H](C)[C@H]1CC[C@H]2[C@@H]3CC=C4c5sc(Nc6cc(C(F)(F)F)cc(C(F)(F)F)c6)nc5CC[C@]4(C)[C@H]3CC[C@]12C	satisfied
CCOC(=O)c1[nH]cc2c1CCc1sc(Nc3ccccn3)nc1-2	not satisfied
CN(C)c1ccc(/C=N\NC(=O)c2ccc3nc(-c4ccc(Cl)cc4)[nH]c3c2)cc1	not satisfied
CNC(=O)NCC1OC(n2cnc3c(NC(=O)Nc4ccccc4)ncnc32)C2OC(=O)CC12 (stereo unspecified)	satisfied
COc1ccc(/C=N/Nc2c3ccccc3nc3ccccc23)cc1	satisfied
C=CN(C(=O)N1CCN(c2cc3c(cc2F)c(=O)c(C(=O)O)cn3C2CC2)CC1)c1nc(-c2ccccc2)cs1	satisfied
COc1ccc(N=C2NN=C(c3c[nH]c4ccccc34)CS2)cc1OC	not satisfied
CC(C)n1c2ccc(Br)cc2c2c3c(c4c5ccccc5ccc4c21)C(=O)NC3=O	satisfied
FC(F)(F)c1[nH]ncc1-c1nc2ccc3[nH]ncc3c2c2c1CCCC2	not satisfied
CCN(CC)CCn1c2ccc(OC)cc2c2sc3cc(O)ccc3c(=O)c21	not satisfied
CNC(=O)c1cc(Oc2ccc3c(c2)sc2nc(-c4ccc(Cl)c(C(F)(F)F)c4)cn23)ccn1	not satisfied
Cc1cc(O)c(=O)cc2c1C[C@H]1CC(C)(C)/C=C/C[C@]3(C)Oc4cc(=O)c(O)cc(C)c4C[C@H]3C[C@H](O)[C@@]1(C)O2	not satisfied
O=[N+]([O-])c1c(O)c(Cl)cc(Cl)c1Cl	satisfied
COCCn1cc(-c2nc(-c3cc4cccnc4n3C)cs2)c2ccccc21	not satisfied
Nc1nc(N(Cc2ccccc2)c2ccccc2)c2cn[nH]c2n1	satisfied
Clc1ccc(Nc2ncc(Cc3cccc(Cl)c3Cl)s2)cc1	satisfied
C[C@H]1[C@H](C)CC[C@]2(C(=O)NCCNCCN)CC[C@]3(C)C(=CC[C@@H]4[C@@]5(C)CCC(=O)C(C)(C)[C@@H]5CC[C@]43C)[C@H]12	not satisfied
COc1cc(/C=C/C(=O)c2cc(OC)c(OC)c(OC)c2)ccc1Oc1nc2c(c(=O)n(C)c(=O)n2C)n1C	not satisfied
C[C@H](c1nc2ccc(C#N)cc2[nH]1)[C@H]1CC[C@H]2[C@@H]3CCC4=CC(=O)CC[C@]4(C)[C@H]3CC[C@]12C	not satisfied
COc1cc(/C=C/C(=O)c2cccc(-n3cc(-c4ccc(Cl)cc4)[nH]c3=O)c2)ccc1O	not satisfied
COc1ccc(NC(=O)c2ccc(Nc3ncnc4c3cnn4-c3cccc(F)c3)cc2)cc1	satisfied
CN(C)CCCC1(c2ccc(F)cc2)OCc2cc(-c3csc4ccccc34)ccc21 (stereo unspecified)	not satisfied
COc1ccc2c(c1)c(-c1nc(-c3ccc4ccccc4c3)cs1)cn2C	satisfied
CCOC(=O)c1c(NC(=O)c2ccccc2)sc2c3c(ccc12)OCN(C)C3	not satisfied
